- Tested System: UniProt:P42345
- Assay Overview: mTOR enzyme assay (DELFIA format, purified enzyme)
- Condition Summary: 800 ng/ml FLAG-TOR, 100 μM ATP, 1.25 μM His6-S6K; read-out: mTOR Kinase IC50
Rule: IC50 below 400 nM gives 1.0, anything at or above gives 0.0.

>>> discrete_label("O=c1cc(Oc2ccccc2)c2cc(-c3ccccc3)ccc2[nH]1")
0.0
>>> discrete_label("O=c1cc(Oc2ccc(-c3cn[nH]c3)cc2)c2ccccc2[nH]1")
0.0
>>> discrete_label("O=c1cc(Oc2cccc(-c3ccoc3)c2)c2ccccc2[nH]1")
1.0
>>> discrete_label("O=c1cc(Oc2cccc(-c3ccc(NCc4ccncc4)cc3)c2)c2ccccc2[nH]1")
0.0
>>> discrete_label("CN1CCN(c2ccc(-c3cccc(Oc4cc(=O)[nH]c5ccccc45)c3)cn2)CC1")
1.0
>>> discrete_label("CC(C)(C)OC(=O)Nc1ccc(CNc2cccc(Oc3cc(=O)[nH]c4ccccc34)c2)cn1")
0.0
>>> discrete_label("O=c1cc(Oc2cccc(-c3ccc(NCCCl)cc3)c2)c2ccccc2[nH]1")
0.0

====

Endpoint: IC50. System: UniProtKB P42336. Items follow.
Sequence (P42336 whole entry, species assumed): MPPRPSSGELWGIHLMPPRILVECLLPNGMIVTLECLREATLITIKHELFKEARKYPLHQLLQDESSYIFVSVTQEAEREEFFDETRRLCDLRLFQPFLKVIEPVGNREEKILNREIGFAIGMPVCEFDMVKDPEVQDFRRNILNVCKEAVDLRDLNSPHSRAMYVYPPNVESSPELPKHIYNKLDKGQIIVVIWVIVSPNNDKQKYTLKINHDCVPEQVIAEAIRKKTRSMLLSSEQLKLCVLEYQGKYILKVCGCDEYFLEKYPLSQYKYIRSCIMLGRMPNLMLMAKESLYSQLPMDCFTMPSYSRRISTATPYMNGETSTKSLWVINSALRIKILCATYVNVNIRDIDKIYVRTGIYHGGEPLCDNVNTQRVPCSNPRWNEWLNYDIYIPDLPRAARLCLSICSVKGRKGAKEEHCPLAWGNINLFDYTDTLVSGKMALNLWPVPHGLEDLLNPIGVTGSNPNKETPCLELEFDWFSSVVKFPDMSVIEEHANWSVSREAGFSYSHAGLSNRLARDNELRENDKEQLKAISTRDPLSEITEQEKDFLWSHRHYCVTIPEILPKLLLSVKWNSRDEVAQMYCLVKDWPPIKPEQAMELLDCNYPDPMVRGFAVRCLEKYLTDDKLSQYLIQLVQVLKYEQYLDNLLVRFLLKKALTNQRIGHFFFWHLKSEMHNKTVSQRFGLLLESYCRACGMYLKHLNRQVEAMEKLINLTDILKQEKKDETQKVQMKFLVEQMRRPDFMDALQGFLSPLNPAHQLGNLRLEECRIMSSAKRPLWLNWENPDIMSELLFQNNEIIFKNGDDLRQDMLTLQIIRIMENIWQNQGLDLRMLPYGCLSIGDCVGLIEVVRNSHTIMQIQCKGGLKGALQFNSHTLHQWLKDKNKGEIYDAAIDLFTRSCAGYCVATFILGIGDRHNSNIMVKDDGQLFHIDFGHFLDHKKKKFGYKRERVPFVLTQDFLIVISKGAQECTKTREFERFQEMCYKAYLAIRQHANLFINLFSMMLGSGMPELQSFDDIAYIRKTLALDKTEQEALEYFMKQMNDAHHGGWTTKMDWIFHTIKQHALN
Sequence (P27986 whole entry partner, species assumed): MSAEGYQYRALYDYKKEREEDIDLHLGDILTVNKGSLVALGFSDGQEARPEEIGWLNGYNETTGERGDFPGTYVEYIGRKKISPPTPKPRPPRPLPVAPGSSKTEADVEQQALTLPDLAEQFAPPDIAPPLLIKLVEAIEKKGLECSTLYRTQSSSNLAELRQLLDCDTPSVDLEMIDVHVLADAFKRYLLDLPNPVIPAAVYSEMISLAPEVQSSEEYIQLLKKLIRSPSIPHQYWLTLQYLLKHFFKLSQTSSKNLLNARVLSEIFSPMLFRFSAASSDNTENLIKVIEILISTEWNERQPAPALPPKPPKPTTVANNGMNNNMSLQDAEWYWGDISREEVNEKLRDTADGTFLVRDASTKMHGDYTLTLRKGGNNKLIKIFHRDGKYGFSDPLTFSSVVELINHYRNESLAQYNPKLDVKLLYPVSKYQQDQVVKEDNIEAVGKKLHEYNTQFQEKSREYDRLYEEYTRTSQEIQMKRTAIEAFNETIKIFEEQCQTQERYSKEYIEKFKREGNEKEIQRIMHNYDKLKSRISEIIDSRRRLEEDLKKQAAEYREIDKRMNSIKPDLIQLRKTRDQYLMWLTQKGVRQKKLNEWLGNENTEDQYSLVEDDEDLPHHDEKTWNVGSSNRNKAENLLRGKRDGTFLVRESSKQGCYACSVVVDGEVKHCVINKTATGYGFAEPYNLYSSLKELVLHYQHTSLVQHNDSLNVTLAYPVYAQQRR
Test Readout: IC50 (µM)

>>> recorded_number("O=c1cc(Oc2ccc(F)cc2)c2ccccc2[nH]1")
1.59
>>> recorded_number("O=c1cc(Oc2ccccn2)c2ccccc2[nH]1 [drawing 389]")
8.74
>>> recorded_number("O=c1cc(Oc2cccc(OCc3ccccc3)c2)c2ccccc2[nH]1 [drawing 351]")
4.15
>>> recorded_number("CN1CCN(c2cc(-c3ccc(Oc4cc(=O)[nH]c5ccccc45)cc3)ccn2)CC1")
9
>>> recorded_number("O=c1cc(Oc2ccccc2)c2cc(-c3cn[nH]c3)ccc2[nH]1")
0.375
>>> recorded_number("CS(=O)(=O)Nc1cccc(-c2cccc(Oc3cc(=O)[nH]c4ccccc34)c2)c1")
3.55
>>> recorded_number("O=c1cc(Oc2ccccc2Br)c2ccccc2[nH]1")
8
>>> recorded_number("CC(C)(C)OC(=O)n1ccc2cc(CNc3cccc(Oc4cc(=O)[nH]c5ccccc45)c3)cnc21")
11.8
>>> recorded_number("O=c1cc(Oc2cccc(NCc3ccc(Cl)nc3)c2)c2ccccc2[nH]1")
13
>>> recorded_number("O=c1cc(Oc2cccc(NCc3cccnc3Cl)c2)c2ccccc2[nH]1 [drawing 207]")
11

====

- Tested System: human TOR (FLAG-TOR) (Homo sapiens, UniProt P42345)
- Assay Overview: mTOR enzyme assay (DELFIA format, purified enzyme)
- Condition Summary: 800 ng/ml FLAG-TOR, 100 μM ATP, 1.25 μM His6-S6K; read-out: mTOR Kinase IC50
Classification scheme (IC50): bin 1 (below 200 nM), bin 2 (200 nM to below 600 nM), bin 3 (600 nM or more)

>>> discrete_label("O=c1cc(Oc2ccccc2)c2cc(N3CCOCC3)ccc2[nH]1")
"bin 3"
>>> discrete_label("Nc1ccc2[nH]c(=O)cc(Oc3ccccc3)c2c1")
"bin 3"
>>> discrete_label("Cc1cccc(Oc2cc(=O)[nH]c3ccccc23)c1 [drawing 249]")
"bin 2"
>>> discrete_label("O=c1cc(Oc2ccc3c(c2)OCO3)c2ccccc2[nH]1")
"bin 3"
>>> discrete_label("O=c1cc(Oc2cccc(NCc3cccnc3Cl)c2)c2ccccc2[nH]1 [drawing 207]")
"bin 1"
>>> discrete_label("O=c1cc(Oc2cccc(-c3ccc4[nH]ccc4c3)c2)c2ccccc2[nH]1")
"bin 2"
>>> discrete_label("CC(Nc1cccc(Oc2cc(=O)[nH]c3ccccc23)c1)c1ccncc1 (stereo not drawn)")
"bin 1"
>>> discrete_label("CN(C)CCc1ccc(Oc2cc(=O)[nH]c3ccccc23)cc1")
"bin 3"
>>> discrete_label("CN(C)CCCN1CCN(c2cccc(Oc3cc(=O)[nH]c4ccccc34)c2)CC1")
"bin 3"
>>> discrete_label("O=c1cc(Oc2cccc(F)c2)c2ccccc2[nH]1")
"bin 3"
>>> discrete_label("O=c1cc(Oc2cccc(NCc3cncc(F)c3)c2)c2ccccc2[nH]1")
"bin 1"
>>> discrete_label("Cc1n[nH]c(C)c1-c1ccc(Oc2cc(=O)[nH]c3ccccc23)cc1")
"bin 3"
>>> discrete_label("CC(C)OC(=O)Nc1ccc(-c2cccc(Oc3cc(=O)[nH]c4ccccc34)c2)cc1")
"bin 3"
>>> discrete_label("Nc1ccc(CNc2cccc(Oc3cc(=O)[nH]c4ccccc34)c2)cn1")
"bin 1"
>>> discrete_label("CC(C)(C)OC(=O)N1CCN(c2ccc(-c3cccc(Oc4cc(=O)[nH]c5ccccc45)c3)cc2)CC1")
"bin 3"
>>> discrete_label("O=c1cc(Oc2cccc(-c3ccncc3)c2)c2ccccc2[nH]1")
"bin 2"
>>> discrete_label("O=c1cc(Oc2cccc(NCc3ccc(Cl)nc3)c2)c2ccccc2[nH]1")
"bin 1"
>>> discrete_label("O=c1cc(Oc2cccc(-c3ccc(N4CCOCC4)cc3)c2)c2ccccc2[nH]1")
"bin 2"
>>> discrete_label("O=c1cc(Oc2cccc([N+](=O)[O-])c2)c2ccccc2[nH]1")
"bin 3"
>>> discrete_label("O=c1cc(Oc2cccc(NC3CCN(Cc4ccccn4)CC3)c2)c2ccccc2[nH]1")
"bin 1"
>>> discrete_label("O=C(NCCN1CCOCC1)Nc1ccc(-c2cccc(Oc3cc(=O)[nH]c4ccccc34)c2)cc1")
"bin 2"
>>> discrete_label("CN(C)CC(=O)Nc1ccc2[nH]c(=O)cc(Oc3ccccc3)c2c1")
"bin 3"
>>> discrete_label("CN(C)CCNC(=O)c1cccc(-c2cccc(Oc3cc(=O)[nH]c4ccccc34)c2)c1")
"bin 2"
>>> discrete_label("CC(Nc1cccc(Oc2cc(=O)[nH]c3ccccc23)c1)c1cccnc1 (stereo not drawn)")
"bin 1"
>>> discrete_label("O=C(NCCO)c1ccc(-c2cccc(Oc3cc(=O)[nH]c4ccccc34)c2)cc1")
"bin 2"
>>> discrete_label("O=c1cc(Oc2cccc(-c3ccc(NCCN4CCCC4)cc3)c2)c2ccccc2[nH]1")
"bin 1"
>>> discrete_label("CN(C)c1ncccc1CNc1cccc(Oc2cc(=O)[nH]c3ccccc23)c1")
"bin 2"
>>> discrete_label("O=c1cc(Oc2ccccc2)c2cc(-c3cccnc3)ccc2[nH]1")
"bin 3"
>>> discrete_label("O=c1cc(Oc2cccc(OC(F)(F)F)c2)c2ccccc2[nH]1")
"bin 3"
>>> discrete_label("CN(Cc1cccnc1)c1cccc(Oc2cc(=O)[nH]c3ccccc23)c1 [drawing 372]")
"bin 2"
>>> discrete_label("O=c1cc(Oc2cccc(-c3ccc(Cl)nc3)c2)c2ccccc2[nH]1")
"bin 3"
>>> discrete_label("O=c1cc(Oc2cccc(NCc3cccnc3Cl)c2)c2ccccc2[nH]1 [drawing 217]")
"bin 1"
>>> discrete_label("Cc1cccc(Oc2cc(=O)[nH]c3ccccc23)c1 [drawing 313]")
"bin 2"
>>> discrete_label("O=c1cc(Oc2ccccc2)c2ccc(Br)cc2[nH]1")
"bin 3"
>>> discrete_label("CN(C)CCNC(=O)Nc1ccc(-c2cccc(Oc3cc(=O)[nH]c4ccccc34)c2)cc1")
"bin 1"
>>> discrete_label("O=c1cc(Oc2ccc(-c3ccsc3)cc2)c2ccccc2[nH]1")
"bin 3"
>>> discrete_label("O=c1cc(Oc2ccccc2)c2ccccc2[nH]1")
"bin 2"
